# tgt: CHK1 kinase (Homo sapiens)
# Construct: The kinase domain is expressed in baculovirus and purified by the GST tag; GST; made in house
# Sequence (O14757 9-265 limits assumed): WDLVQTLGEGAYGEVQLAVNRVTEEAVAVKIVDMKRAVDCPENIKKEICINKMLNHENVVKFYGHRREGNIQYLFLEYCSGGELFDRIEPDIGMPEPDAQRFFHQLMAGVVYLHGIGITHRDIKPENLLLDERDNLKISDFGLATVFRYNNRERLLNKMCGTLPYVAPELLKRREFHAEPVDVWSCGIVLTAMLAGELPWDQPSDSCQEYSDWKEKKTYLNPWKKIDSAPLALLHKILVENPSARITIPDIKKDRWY
# protocol: Checkpoint Kinase 1 Assay (Scintillation Proximity Assay)
# Assay type: biochemical
# recorded_conditions: assay not given; IC50s are determined in the Checkpoint Kinase 1 assay
# Procedure: Checkpoint Kinase 1 Assay: This in vitro assay measures the inhibition of CHK1 kinase by compounds. The kinase domain is expressed in baculovirus and purified by the GST tag. Purified protein and biotinylated peptide substrate (Cdc25C) is then used in a 384 well automated Scintillation Proximity Assay (SPA). […] Plates are then counted on a Topcount. Data is analyzed and IC50s determined for individual compounds.
Counter-ions that a name gives are not always drawn.
quantity_name: pIC50
In textbook form, pIC50 equals minus log to base ten of the concentration in mol/L.

Exercise: For the compound CCN(CC)CCOc1ccc(-c2cc(C(=O)NC3CCCNC3)c(NC(N)=O)s2)cc1 (stereo not shown) [Example 2, trifluoroacetate] , what pIC50 is on record?
Key: 8.00

FYI, the data here is from patent US7423061B2.
